From: PubChem BioAssay AID1159580

- ASSAY REMARKS: chemical genetic growth profiling, strain panel (AID 1159580);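 also: tested at 20 µM; growth read once vehicle control cultures reached saturation at 30 °C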
- PARTICULARS: S. cerevisiae deletion strains, growth OD, locus YPL078C, strain atp4, stronger effect = lower value
The whole screen tested about 5,500 compounds, of which about 2,000 (36%) were called active. Not shown: some 18% with an inconclusive outcome. The list shows a part of the results.
Entries whose normalized growth is below 1 take rule met; entries at or above 1 take rule not met.

MOLECULE | GROUP
C=C1C(=O)[C@]23[C@H](O)[C@H]1CC[C@H]2[C@@]12CO[C@]3(O)[C@H](O)[C@@H]1C(C)(C)CC[C@@H]2O | rule not met

# input Find out if reported normalized growth for "C[C@H]1C[C@@H](O)[C@]2(O)[C@@]13CC(=O)OC[C@@]2(C)[C@](C)(O)C(=O)C3" is less than 1
# output rule not met

# input Quick one: NC(=O)CS(=O)C(c1ccccc1)c1ccccc1 (centres undefined)
# output rule not met

# input Quick one: Clc1ccc(C(c2ccccc2Cl)C(Cl)Cl)cc1 (centres undefined)
# output rule met

# input Quick one: "NC1(C(=O)O)CCCC1"
# output rule not met

# input Quick one: "O=NN(CCCl)C(=O)NCCCl"
# output rule met

# input Quick one: CC(C)/C(O)=C1/C(=O)O[C@@H](c2ccoc2)[C@]2(C)C(O)[C@@H](O)[C@@]34OC5(C)OC67CC(C)(C(O)[C@]6(O)[C@@H](O)[C@]3(O5)C12)[C@H](CC(=O)O)[C@]74C (some centres undefined)
# output rule met

# input Quick one: CCN1C[C@@]2(COC)C3[C@@H](OC)[C@H]4[C@@H]1[C@]3(C(OC)C[C@H]2O)C1C[C@@]2(O)[C@H](OC(=O)c3ccccc3)C1[C@]4(OC(C)=O)[C@@H](O)[C@@H]2OC (some centres undefined)
# output rule met

# input Quick one: "NC1(C(=O)O)CC1"
# output rule not met

# input Quick one: "O=C1CCCN1CC#CCN1CCCC1"
# output rule not met

# input Quick one: CC1CCC(NC(=O)N(CCCl)N=O)CC1 (centres undefined)
# output rule met
